molecular target: hCB1 (Homo sapiens, UniProt P21554); assay: bioSensAll ebBRET signaling profiling, hCB1; type: cell-based; set-up: host or cells: HEK293SL cells, transient PEI transfection; settings: Gi1 biosensor; Log [Compound] (M) -11.9208
Sequence (P21554 whole entry): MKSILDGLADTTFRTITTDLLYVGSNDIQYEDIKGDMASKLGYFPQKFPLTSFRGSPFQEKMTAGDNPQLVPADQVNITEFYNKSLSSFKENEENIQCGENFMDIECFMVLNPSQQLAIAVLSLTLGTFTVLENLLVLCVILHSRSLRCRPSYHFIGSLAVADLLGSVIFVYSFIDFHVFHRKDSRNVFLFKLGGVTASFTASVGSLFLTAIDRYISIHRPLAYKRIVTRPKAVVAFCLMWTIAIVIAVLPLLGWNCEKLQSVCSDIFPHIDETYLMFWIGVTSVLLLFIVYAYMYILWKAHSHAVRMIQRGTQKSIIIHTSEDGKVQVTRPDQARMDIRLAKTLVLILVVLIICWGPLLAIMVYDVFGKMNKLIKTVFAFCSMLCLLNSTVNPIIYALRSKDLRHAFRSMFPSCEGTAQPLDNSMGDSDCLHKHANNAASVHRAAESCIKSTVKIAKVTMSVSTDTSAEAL
Reported Gi1 hCB1 response values are given for each entry in this list.
reported property: Gi1 hCB1 response

compound | readout value
Cc1cc(C(=O)NC(c2ccccc2)c2ccco2)nn1-c1cccc(C#N)c1 (stereo not shown) | -0.5263
Cc1cc(C(=O)NC(c2ccccc2)c2ccco2)nn1-c1cccc(C(F)(F)F)c1 (stereo not shown) | -4.7116
Cc1cc(C(=O)N2CC3(CCC3)[C@@H]2[C@@H]2CCCO2)nn1-c1cccc(C(F)(F)F)c1 | 0.6376
COc1cccc(C(NC(=O)c2cc(C)n(-c3cccc(C(F)(F)F)c3)n2)c2ccco2)c1 (stereo not shown) | -11.0679

====

target: UniProt:P21554; assay: bioSensAll ebBRET signaling profiling, hCB1; assay type: cell-based; design: host or cells: HEK293SL cells, transient PEI transfection; conditions: Log [Compound] (M) -6.72585; single replicate values, FigS6a
Each item that follows carries a reported Gi1 hCB1.

compound | experimental system | Gi1 hCB1
Cc1cc(C(=O)NC(c2ccccc2)c2ccco2)nn1-c1cccc(C(F)(F)F)c1 (stereo not shown) | UniProt:P21554 | 32.0322
Cn1nc(-c2nnc(C(C)(C)Oc3ccc(Cl)cc3)o2)c2ccccc2c1=O | UniProt:P21554 | -1.469
COC(=O)[C@@H]1[C@@H]2CCC[C@@H]2CN1C(=O)c1cc(C)n(-c2cccc(Cl)c2)n1 (racemic) | UniProt:P21554 | 16.0606
Cc1cc(C(=O)N2CC3(CCC3)[C@@H]2[C@H]2CCCO2)nn1-c1cccc(C(F)(F)F)c1 (single isomer, unassigned) | UniProt:P21554 | 1.1836
Cc1cc(C(=O)N2CC3(CCC3)[C@H]2[C@@H]2CCCO2)nn1-c1cccc(C(F)(F)F)c1 | UniProt:P21554 | 10.5569
Cn1nc(-c2nnc(C(C)(C)Oc3ccc(C(F)(F)F)cc3)o2)c2ccccc2c1=O | UniProt:P21554 | 25.5166
COC(=O)C(NC(=O)c1cc(C)n(-c2cccc(F)c2)n1)c1cccs1 (stereo not shown) | UniProt:P21554 | 13.671
Cc1nc(CC2CC2)oc1-c1nc(Cc2cc3c(cc2Br)OCO3)no1 | UniProt:P21554 | -4.716
Brc1cc2c(cc1Cc1noc(-c3cnn(CC4CC4)c3)n1)OCO2 | UniProt:P21554 | -11.811
Cc1cc(C(=O)N(C)C(c2ccco2)c2ccco2)nn1-c1cccc(C(F)(F)F)c1 | UniProt:P21554 | -4.983
Cc1cc(C(=O)N2CC3(CCC3)[C@@H]2[C@@H]2CCCO2)nn1-c1cccc(C(F)(F)F)c1 | UniProt:P21554 | 0.5361
Cc1cc(C(=O)NC(c2ccco2)c2ccco2)nn1-c1cccc(C(F)(F)F)c1 | UniProt:P21554 | 72.1615
Cc1cc(C(=O)N2CC3(CCC3)[C@H]2[C@H]2CCCO2)nn1-c1cccc(C(F)(F)F)c1 | UniProt:P21554 | 7.211
Cc1cc(C(=O)N(C)C(c2ccccc2)c2ccco2)nn1-c1cccc(C(F)(F)F)c1 (stereo not shown) | UniProt:P21554 | -1.113
CC(=O)C(c1cccs1)N(C)C(=O)c1cc(C)n(-c2cccc(C(F)(F)F)c2)n1 (stereo not shown) | UniProt:P21554 | 9.694
Cc1c(C(=O)OCC2CSc3ccccc3O2)cnn1Cc1ccccc1 (stereo not shown) | UniProt:P21554 | 1.761
COC(=O)C(NC(=O)c1cc(C)n(-c2cccc(C(F)(F)F)c2)n1)c1cccs1 (stereo not shown) | UniProt:P21554 | 72.9632
COC(=O)[C@@H]1[C@@H]2CC[C@@H]2CN1C(=O)c1cc(C)n(-c2cccc(C(F)(F)F)c2)n1 | UniProt:P21554 | 28.6559
COc1cccc(C(NC(=O)c2cc(C)n(-c3cccc(C(F)(F)F)c3)n2)c2ccco2)c1 (stereo not shown) | UniProt:P21554 | -1.1443
Cc1nn(Cc2ccc(Cl)cc2)c(C)c1C(=O)OCC1CSc2ccccc2O1 (stereo not shown) | UniProt:P21554 | -0.6618
COC(=O)[C@@H]1[C@@H]2CCC[C@@H]2CN1C(=O)c1cc(C)n(-c2cccc(C(F)(F)F)c2)n1 | UniProt:P21554 | 73.3178
Cc1cc(C(=O)NC(c2ccccc2)c2ccco2)nn1-c1cccc(C#N)c1 (stereo not shown) | UniProt:P21554 | 17.7873
